- test-name: HepG2 liver cancer cell viability effects, profiling panel, resazurin fluorescence, 24 h, PK04 Diversity Set (AID 1172); note: test concentration not given here
- condition-notes: higher = more signal
assay-readout: z-score
Would you mind answering with just the numeric figure?

* O=C1O[C@@H](c2ccccc2)[C@@H](c2ccccc2)N2[C@@H](c3ccccc3OCCO)[C@]3(C(=O)Nc4ccc(C#CC5(O)CCCCCC5)cc43)[C@@H](C(=O)N3CCCCCCC3)[C@H]12 | -0.225
* C=CCOC(=O)[C@@H]1[C@H]2C(=O)O[C@H](c3ccccc3)[C@H](c3ccccc3)N2[C@H](c2ccc(OCCOC(=O)[C@H]3C[C@H]4C(=O)N[C@@H](CCCCN(C)C)C(=O)N4[C@H]3c3cccc(OCCO)c3)cc2)[C@@]12C(=O)Nc1ccccc12 | 0.594
* COc1ccc(CCNC(=O)[C@@]2(c3ccc([N+](=O)[O-])cc3)CC(=O)N(C3CCCCC3)[C@@H]2c2ccc(CO)cc2I)cc1 | -1.29
* CN(C)CCCCNC(=O)[C@H]1C[C@H]2C(=O)N[C@@H](CCCCN(C)C)C(=O)N2[C@H]1c1ccc(O)cc1 | 0.828
* [N-]=[N+]=NCc1ccccc1[C@H]1OC(c2ccc(OCCCO)cc2)=N[C@@]1(Cc1ccccc1N=[N+]=[N-])C(=O)N1CCOCC1 | -0.317

**Q:** State, in one line, measured z-score of O=C1O[C@@H](c2ccccc2)[C@@H](c2ccccc2)N2[C@@H](c3ccc(OCCO)cc3)[C@]3(C(=O)Nc4ccc(C#CC5=CCCCC5)cc43)[C@@H](C(=O)Nc3nc4ccccc4s3)[C@H]12
**A:** -0.533

----------
- test-name: small-molecule binders of probe aNOTCH2, primary screen, biochemical, small-molecule microarray, 635/667 nm fluorescence (AID 1121);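 note: score merges feature fluorescence read at 667 nm with its signal to noise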
- condition-notes: higher = more signal
Given measured composite z-score, output Satisfied if it is greater than or equal to -0.05 and Not satisfied if not.

Below are worked cases with known answers.
* C=CCC(OC(C)=O)[C@@H]1[C@@H](N(Cc2ccc(-c3ccccc3)cc2)C(=O)Cc2ccc(OC)cc2)c2cc(OCCCO)ccc2N1C(=O)Cc1ccc(OC)cc1 (stereo not given in full) | Satisfied
* COC(=O)c1ccc(OC)c(/C=C\CC(OC(=O)c2ccncc2)c2ccccc2)c1 (stereo not given) | Not satisfied
* [N-]=[N+]=Nc1ccccc1C[C@@]1(C(=O)NCC(O)CO)N=C(c2ccc(OCCCO)cc2)O[C@@H]1c1ccccc1N=[N+]=[N-] (stereo not given in full) | Satisfied

**Q:** Textbook exercise: given the entry CC1CC/C=C\[C@H]2OC34C=CCN(CCN5CCOCC5)C(=O)[C@H]3N(C(CO)C(C)C)C(=O)[C@@H]4C2C(=O)O1 (stereo not given in full) , state whether its composite z-score is greater than or equal to -0.05.
**A:** Not satisfied

**Q:** Textbook exercise: given the entry CCCCC=C[C@@H](NC(=O)C(C)(C)C)c1ccccc1 , state whether its composite z-score is greater than or equal to -0.05.
**A:** Not satisfied

**Q:** Textbook exercise: given the entry C=C(C)C1CN([C@H](CO)c2ccccc2)C(=O)/C1=C\c1ccccc1 (stereo not given in full) , state whether its composite z-score is greater than or equal to -0.05.
**A:** Not satisfied

**Q:** Textbook exercise: given the entry COc1ccc(C#Cc2ccc3c(c2)[C@]2(C(=O)N3)[C@H](c3ccccc3OCCO)N3[C@H](c4ccccc4)[C@H](c4ccccc4)OC(=O)[C@H]3[C@@H]2C(=O)NC[C@H](O)c2ccccc2)cc1 , state whether its composite z-score is greater than or equal to -0.05.
**A:** Not satisfied

**Q:** Textbook exercise: given the entry COCCOC(=O)N1C(=O)[C@@]2(c3cc(C#CCNC(N)=O)ccc31)[C@H](C(N)=O)[C@H]1C(=O)O[C@H](c3ccccc3)[C@H](c3ccccc3)N1[C@@H]2c1ccc(O)cc1 , state whether its composite z-score is greater than or equal to -0.05.
**A:** Satisfied

**Q:** Textbook exercise: given the entry COc1cccc(C)c1NC(=O)O[C@H]1[C@H](OC(=O)Nc2ccc3c(c2)OCO3)[C@H](OC(=O)Nc2ccc3c(c2)OCO3)[C@@H](OC)O[C@@H]1CO , state whether its composite z-score is greater than or equal to -0.05.
**A:** Not satisfied

**Q:** Textbook exercise: given the entry Cc1c(NC(=O)/C(C#N)=C/C=C/c2ccc([N+](=O)[O-])cc2)c(=O)n(-c2ccccc2)n1C , state whether its composite z-score is greater than or equal to -0.05.
**A:** Satisfied
